This collection of values is drawn from ChEMBL document CHEMBL1142606.

IC50 listing for selected compounds.
# Test system: Staphylococcus aureus
# Assay Name: Antibacterial activity against methicillin-resistant Staphylococcus aureus ATCC 43300 after 18 hrs by broth dilution assay
# Type: functional, organism-based
# Assay Conditions: ATCC 43300, 18 h
Form entry: value (µM) — number only.

Worked cases, IC50 given:
• Cc1cc(O)c2c(c1)C(=O)c1ccc3c(c1C2=O)O[C@@]12O[C@@H](C)[C@H]4C31C(=C(O)C[C@@]4(C)O)C(=O)c1c(O)cccc12 (some centres undefined) = 0.15
• Cc1cc(O)c2c(c1)C(=O)c1ccc3c(c1C2=O)O[C@@]12O[C@@H](C)[C@@]4(O)C31C(=C(O)C[C@@]4(C)O)C(=O)c1c(O)cccc12 (some centres undefined) = 0.36

Please look at the following compound next.
Lookup: Name the recorded IC50 of the compound listed here: CC1=CC(O)=C2C(=O)c3c(O)cccc3[C@@]34Oc5c(ccc6c5C(=O)c5c(O)cc(C)cc5C6=O)C23[C@@H]1[C@H](C)O4 (some centres undefined)
Found: 31
